Test: Serum binding by ultrafiltration
Type: in vitro ADME
Conditions: pig, porcine serum, 8 mcg/ml, read-out: % bound to pig serum (converted)
property.name: fraction unbound

**Q:** Quickly give me recorded fraction unbound for C/C(=C\C(=O)OCCCC(=NNC(N)=O)c1ccccc1)C[C@@H]1OC[C@H](C[C@@H]2O[C@H]2[C@@H](C)[C@H](C)O)[C@@H](O)[C@H]1O [Example 2, 4-Phenyl-4-semicarbazonobutyl monate A]
**A:** < 0.159

**Q:** Identify measured fraction unbound associated with C/C(=C\C(=O)OCCCC(=NO)c1ccccc1)C[C@@H]1OC[C@H](C[C@@H]2O[C@H]2[C@@H](C)[C@H](C)O)[C@@H](O)[C@H]1O [Example 1, 4-Hydroxyimino-4-phenylbutyl monate A]
**A:** < 0.08

**Q:** Annotate the molecule C/C(=C\C(=O)OCCCC(=NO)c1cccs1)C[C@@H]1OC[C@H](C[C@@H]2O[C@H]2[C@@H](C)[C@H](C)O)[C@@H](O)[C@H]1O with its measured fraction unbound.
**A:** < 0.039

====

Tested on: Past. multocida PA1
property.name: MIC (µg/mL)
Give your result in µg/mL as a bare value.

**Q:** Tell me its MIC given C/C(=C\C(=O)OCc1ccc(C=NO)o1)C[C@@H]1OC[C@H](C[C@@H]2O[C@H]2[C@@H](C)[C@H](C)O)[C@@H](O)[C@H]1O [Example 7, 5-Hydroxyiminomethylfurfuryl monate A] as the entry.
**A:** 0.625

**Q:** Supply measured MIC of CON=C(CCCOC(=O)/C=C(\C)C[C@@H]1OC[C@H](C[C@@H]2O[C@H]2[C@@H](C)[C@H](C)O)[C@@H](O)[C@H]1O)c1ccccc1 [Example 5, 4-Methoxyimino-4-phenylbutyl monate A] in your reply.
**A:** 20

**Q:** Fill in reported MIC for this entry: C/C(=C\C(=O)OC1CCC(=NO)CC1)C[C@@H]1OC[C@H](C[C@@H]2O[C@H]2[C@@H](C)[C@H](C)O)[C@@H](O)[C@H]1O (stereo partly shown) [Example 3, 4-Hydroxyiminocyclohexyl monate A]
**A:** 1.25

**Q:** Please give measured MIC of the following entry: C/C(=C\C(=O)OCCCCCC=NN(C)C)C[C@@H]1OC[C@H](C[C@@H]2O[C@H]2[C@@H](C)[C@H](C)O)[C@@H](O)[C@H]1O [Example 6, 6-Dimethylhydrazonohexyl monate A]
**A:** 2.5

====

Experiment: Mean serum concentrations in neonatal piglets after intramuscular or oral administration
Type: in vivo
Settings: pig, im, 50 mg/kg, 40° (printed)
Experimental: Blood levels were assessed in neonatal piglets (2 to 4 animals per group and mean bodyweights about 2 kg). The dose was 50 mg/kg (dose solution=25 mg/ml in 25% ethanol). Doses were given by intramscular injection and orally by stomach tube. Piglets were beld at intervals up to 6 and at 24 hours, serum assayed microbiologically (B. subtilis ATCC 6633).
property.name: concentration at 40 min (ng/mL)
Expressed in ng/mL, but write only the number.

**Q:** Let me know recorded concentration at 40 min for C/C(=C\C(=O)OCCCC(=NO)c1ccccc1)C[C@@H]1OC[C@H](C[C@@H]2O[C@H]2[C@@H](C)[C@H](C)O)[C@@H](O)[C@H]1O [Example 1, 4-Hydroxyimino-4-phenylbutyl monate A] , thanks.
**A:** 6300

====

Test system: E. coli NCTC 10418
Assay: Veterinary bacteria MIC
Format: cell-based
Settings: Escherichia coli, NCTC10418; E. coli NCTC 10418; Diagnostic Sensitivity Test Agar, 18 hours 37° C.; read-out: M.I.C.
Protocol: The values were determined using a two fold serial dilutions in Diagnostic Sensitivity Test Agar with an inoculum of 10^4 organisms and incubation for 18 hours at 37° C.
property.name: MIC

**Q:** Hello, please tell me recorded MIC for this one: C/C(=C\C(=O)OCCCC(=NO)c1cccs1)C[C@@H]1OC[C@H](C[C@@H]2O[C@H]2[C@@H](C)[C@H](C)O)[C@@H](O)[C@H]1O
**A:** > 80 µg/mL

**Q:** Write down MIC measured for item CON=C(CCCOC(=O)/C=C(\C)C[C@@H]1OC[C@H](C[C@@H]2O[C@H]2[C@@H](C)[C@H](C)O)[C@@H](O)[C@H]1O)c1ccccc1 [Example 5, 4-Methoxyimino-4-phenylbutyl monate A]
**A:** > 80 µg/mL

**Q:** Tell me MIC reported for C/C(=C\C(=O)OC1CCC(=NO)CC1)C[C@@H]1OC[C@H](C[C@@H]2O[C@H]2[C@@H](C)[C@H](C)O)[C@@H](O)[C@H]1O (stereo partly shown) [Example 3, 4-Hydroxyiminocyclohexyl monate A]
**A:** > 80 µg/mL

**Q:** Write down MIC measured for item C/C(=C\C(=O)OCCCC(=NNC(N)=O)c1ccccc1)C[C@@H]1OC[C@H](C[C@@H]2O[C@H]2[C@@H](C)[C@H](C)O)[C@@H](O)[C@H]1O [Example 2, 4-Phenyl-4-semicarbazonobutyl monate A]
**A:** > 80 µg/mL

====

Test: in vivo
Details: mouse, po, 50 mg/kg
property.name: concentration at 5 min

**Q:** Assign concentration at 5 min to the following record: C/C(=C\C(=O)OC1CCC(=NO)CC1)C[C@@H]1OC[C@H](C[C@@H]2O[C@H]2[C@@H](C)[C@H](C)O)[C@@H](O)[C@H]1O (stereo partly drawn) [Example 3, 4-Hydroxyiminocyclohexyl monate A]
**A:** 3500 ng/mL

**Q:** Using the record for C/C(=C\C(=O)OCCCCCC=NN(C)C)C[C@@H]1OC[C@H](C[C@@H]2O[C@H]2[C@@H](C)[C@H](C)O)[C@@H](O)[C@H]1O [Example 6, 6-Dimethylhydrazonohexyl monate A] , state its measured concentration at 5 min.
**A:** 3400 ng/mL

**Q:** Indicate its recorded concentration at 5 min; the compound in question is C/C(=C\C(=O)OCCCC(=NO)c1ccccc1)C[C@@H]1OC[C@H](C[C@@H]2O[C@H]2[C@@H](C)[C@H](C)O)[C@@H](O)[C@H]1O [Example 1, 4-Hydroxyimino-4-phenylbutyl monate A]
**A:** 1000 ng/mL

====

Could you please report measured concentration at 1.5 h for the items listed next?
Assay: in vivo
Details: mouse, sc, 50 mg/kg

**Q:** # return recorded concentration at 1.5 h for input C/C(=C\C(=O)OCCCCCC=NN(C)C)C[C@@H]1OC[C@H](C[C@@H]2O[C@H]2[C@@H](C)[C@H](C)O)[C@@H](O)[C@H]1O [Example 6, 6-Dimethylhydrazonohexyl monate A]
**A:** < 600 ng/mL

**Q:** Please supply the value of reported concentration at 1.5 h for the item C/C(=C\C(=O)OCCCC(=NO)c1ccccc1)C[C@@H]1OC[C@H](C[C@@H]2O[C@H]2[C@@H](C)[C@H](C)O)[C@@H](O)[C@H]1O [Example 1, 4-Hydroxyimino-4-phenylbutyl monate A]
**A:** < 200 ng/mL

**Q:** Given C/C(=C\C(=O)OC1CCC(=NO)CC1)C[C@@H]1OC[C@H](C[C@@H]2O[C@H]2[C@@H](C)[C@H](C)O)[C@@H](O)[C@H]1O (stereo partly drawn) [Example 3, 4-Hydroxyiminocyclohexyl monate A] , respond with its concentration at 1.5 h.
**A:** 300 ng/mL

====

Please go through the items and note down their concentration at 20 min.
Experiment: in vivo
Details: mouse, po, 50 mg/kg
# output: bare number, implied unit ng/mL

**Q:** Give the measured concentration at 20 min for C/C(=C\C(=O)OCCCC(=NO)c1ccccc1)C[C@@H]1OC[C@H](C[C@@H]2O[C@H]2[C@@H](C)[C@H](C)O)[C@@H](O)[C@H]1O [Example 1, 4-Hydroxyimino-4-phenylbutyl monate A]
**A:** 230

**Q:** Give the value of concentration at 20 min reported for the following: C/C(=C\C(=O)OCCCCCC=NN(C)C)C[C@@H]1OC[C@H](C[C@@H]2O[C@H]2[C@@H](C)[C@H](C)O)[C@@H](O)[C@H]1O [Example 6, 6-Dimethylhydrazonohexyl monate A]
**A:** 680

**Q:** Name the recorded concentration at 20 min of the compound listed here: C/C(=C\C(=O)OC1CCC(=NO)CC1)C[C@@H]1OC[C@H](C[C@@H]2O[C@H]2[C@@H](C)[C@H](C)O)[C@@H](O)[C@H]1O (stereo partly drawn) [Example 3, 4-Hydroxyiminocyclohexyl monate A]
**A:** 2200

====

Assay: Mean serum concentrations in neonatal piglets after intramuscular or oral administration
Assay type: in vivo
Details: pig, im, 50 mg/kg, 4h
property.name: concentration at 4 h (ng/mL)
Response body: numeric value in ng/mL, unit text excluded.

**Q:** Consider the molecule C/C(=C\C(=O)OCCCC(=NO)c1ccccc1)C[C@@H]1OC[C@H](C[C@@H]2O[C@H]2[C@@H](C)[C@H](C)O)[C@@H](O)[C@H]1O [Example 1, 4-Hydroxyimino-4-phenylbutyl monate A] and give its recorded concentration at 4 h.
**A:** 1700
